Numbers sourced from patent US20240124439A1.

studySystem: IL-2-Inducible T-Cell Kinase (ITK) (Homo sapiens (Human), UniProt Q08881)
Sequence (Q08881 whole entry): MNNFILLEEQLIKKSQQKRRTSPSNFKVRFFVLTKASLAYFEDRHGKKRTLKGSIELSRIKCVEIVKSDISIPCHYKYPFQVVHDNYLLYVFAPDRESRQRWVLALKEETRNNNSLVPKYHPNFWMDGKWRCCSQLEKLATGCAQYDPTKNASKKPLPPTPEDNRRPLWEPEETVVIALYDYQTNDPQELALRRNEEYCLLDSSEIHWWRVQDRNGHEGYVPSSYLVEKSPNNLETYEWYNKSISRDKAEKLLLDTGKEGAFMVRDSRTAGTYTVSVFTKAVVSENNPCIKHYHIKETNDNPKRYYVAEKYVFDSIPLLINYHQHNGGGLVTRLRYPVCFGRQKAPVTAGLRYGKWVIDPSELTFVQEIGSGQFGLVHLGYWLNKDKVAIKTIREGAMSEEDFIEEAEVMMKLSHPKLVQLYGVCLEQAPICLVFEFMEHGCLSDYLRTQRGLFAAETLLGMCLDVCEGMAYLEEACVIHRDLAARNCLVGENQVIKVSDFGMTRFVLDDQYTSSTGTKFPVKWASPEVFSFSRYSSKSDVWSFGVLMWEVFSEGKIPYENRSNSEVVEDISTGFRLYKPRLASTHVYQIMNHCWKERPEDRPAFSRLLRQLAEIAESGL
pIC50: −log10 of the molar value.
readout: pIC50

(P) CN(C(=O)[C@@H]1CCCCO1)c1cnc2nc(-c3n[nH]c4c3C[C@@H]3C[C@]3(C)C4)[nH]c2c1
(Q) CC(=O)N(CC(=O)N(C)c1cnc2nc(-c3n[nH]c4c3C[C@@H]3C[C@]3(C)C4)[nH]c2c1)C(C)C
(R) CN(C(=O)C(C)(C)C1CCOCC1)c1cnc2[nH]c(-c3n[nH]c4c3CCC(C)(C)C4)nc2c1
(S) CN(C(=O)C1CCCC1)c1cnc2nc(-c3n[nH]c4c3C[C@@H]3C[C@]3(C)C4)[nH]c2c1
Q: Reorder: pIC50, max to min. Use the labels to give the ranking in the order requested.
Result: S, Q, P, R

----------
studySystem: UniProt P04629
measurementNotes: TRKA (NTRK1) ThermoFisher Z'-LYTE enzyme assay
Assay type: biochemical
testContext: test compound 1 uM, ATP 1 mM; arithmetic mean of count n
readout: inhibition at 1 µM (%)

In the examples that follow, each entry is paired with its recorded inhibition at 1 µM.
>>> print(df.to_string())
                                   compound             readout  measurement
0  CN(C(=O)C1(F)CCC1)c1cnc2[nH]c(-c3n[nH]c4c3CCC(C)(C)C4)nc2c1 [Example 95]  inhibition at 1 µM           93
1  C[C@@H](C(=O)N(C)c1cc2[nH]c(-c3n[nH]c4c3C[C@@H]3C[C@]3(C)C4)nc2nc1F)N1CCOCC1 [Example 17]  inhibition at 1 µM           96

(a) C[C@@H](C(=O)N(C)c1cnc2[nH]c(-c3n[nH]c4c3C[C@@H]3C(F)(F)[C@]3(C)C4)nc2c1)N1CCOCC1 [Example 23]
(b) CN(c1cnc2nc(-c3n[nH]c4c3C[C@@H]3C[C@]3(C)C4)[nH]c2c1)C(=O)[C@H]1C[C@H](C)C1 [Example 84]
Q: Which shows the larger inhibition at 1 µM value: a or b ? Indicate your choice by writing its label.
Result: b

----------
studySystem: IL-2-Inducible T-Cell Kinase (ITK) (Homo sapiens (Human), UniProt Q08881)
measurementNotes: ITK enzyme assay (IL-2-inducible T-cell kinase activity)
Format: biochemical
testContext: geometric mean of count n
pIC50: −log10 of the molar value.
readout: pIC50

In the examples that follow, each entry is paired with its recorded pIC50.
>>> print(df.to_string())
                                   molecule                               studysystem  measurement
0  CN(C(=O)C1(F)CCC1)c1cnc2[nH]c(-c3n[nH]c4c3CCC(C)(C)C4)nc2c1  IL-2-Inducible T-Cell Kinase (ITK) (Homo sapiens (Human), UniProt Q08881)         7.19
1  CN(C(=O)C(F)(F)C1CCOCC1)c1cnc2nc(-c3n[nH]c4c3CCC(C)(C)C4)[nH]c2c1  IL-2-Inducible T-Cell Kinase (ITK) (Homo sapiens (Human), UniProt Q08881)         7.85
2  CC[C@H](C)C(=O)N(C)c1cnc2[nH]c(-c3n[nH]c4c3CCC(C)(C)C4)nc2c1  IL-2-Inducible T-Cell Kinase (ITK) (Homo sapiens (Human), UniProt Q08881)         6.16
3  CC(=O)N(C)c1cnc2[nH]c(-c3n[nH]c4c3C[C@@H]3C[C@]3(C)C4)nc2c1  IL-2-Inducible T-Cell Kinase (ITK) (Homo sapiens (Human), UniProt Q08881)         6.89

(1) C[C@@H](C(=O)N(C)c1cnc2[nH]c(-c3n[nH]c4c3C[C@@H]3C[C@]3(C)C4)nc2c1)N1CCCOCC1
(2) CCC(C)CC(=O)N(C)c1cnc2nc(-c3n[nH]c4c3C[C@@H]3C[C@]3(C)C4)[nH]c2c1 (stereo partly shown)
(3) C[C@@H](C(=O)N(C)c1cnc2[nH]c(-c3n[nH]c4c3C[C@@H]3C[C@]3(C)C4)nc2c1)N1CCCCC1
(4) CN(C(=O)CC1CCC1)c1cnc2nc(-c3n[nH]c4c3C[C@@H]3C[C@]3(C)C4)[nH]c2c1
Q: Please produce an ascending ranking of these molecules based on pIC50. Use the labels to give the ranking in the order requested.
Result: 3, 1, 2, 4

----------
studySystem: Tropomyosin Receptor Kinase A (TRKA), NTRK1 enzyme (Homo sapiens (Human), UniProt P04629)
Sequence (P04629 33-796): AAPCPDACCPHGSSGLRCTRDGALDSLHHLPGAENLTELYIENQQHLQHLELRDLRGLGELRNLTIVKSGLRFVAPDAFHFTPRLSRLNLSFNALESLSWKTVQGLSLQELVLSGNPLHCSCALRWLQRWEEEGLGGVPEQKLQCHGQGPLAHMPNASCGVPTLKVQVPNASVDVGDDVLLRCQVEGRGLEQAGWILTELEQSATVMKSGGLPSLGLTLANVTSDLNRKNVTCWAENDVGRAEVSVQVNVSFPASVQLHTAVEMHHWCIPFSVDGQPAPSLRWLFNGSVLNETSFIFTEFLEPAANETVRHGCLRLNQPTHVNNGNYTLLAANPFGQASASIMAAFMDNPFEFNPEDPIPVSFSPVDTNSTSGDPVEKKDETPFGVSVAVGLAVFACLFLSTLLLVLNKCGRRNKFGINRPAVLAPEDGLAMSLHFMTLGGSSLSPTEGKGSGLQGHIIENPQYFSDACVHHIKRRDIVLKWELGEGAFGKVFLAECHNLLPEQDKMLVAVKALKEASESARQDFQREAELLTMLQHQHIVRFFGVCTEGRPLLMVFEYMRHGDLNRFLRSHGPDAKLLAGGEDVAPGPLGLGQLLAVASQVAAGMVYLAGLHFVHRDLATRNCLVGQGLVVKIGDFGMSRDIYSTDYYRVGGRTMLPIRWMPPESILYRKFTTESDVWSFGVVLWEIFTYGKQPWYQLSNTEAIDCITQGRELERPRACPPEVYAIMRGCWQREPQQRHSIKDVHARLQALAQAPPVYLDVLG
measurementNotes: TRKA (NTRK1) ThermoFisher Z'-LYTE enzyme assay
Assay type: biochemical
testContext: test compound 1 uM, ATP 1 mM; arithmetic mean of count n
readout: inhibition at 1 µM (%)

(A) CN(C(=O)CN1CCOCC1)c1cnc2nc(-c3n[nH]c4c3C[C@@H]3C[C@]3(C)C4)[nH]c2c1 [Example 58]
(B) C[C@@H](C(=O)N(C)c1cnc2[nH]c(-c3n[nH]c4c3C[C@H]3C[C@@]3(C)C4)nc2c1)N1CCOCC1 [Example 29]
Q: // select label with min value of measured inhibition at 1 µM from [ A , B ] Indicate your choice by writing its label.
Result: B

----------
studySystem: IL-2-Inducible T-Cell Kinase (ITK) (Homo sapiens (Human), UniProt Q08881)
pIC50: −log10 of the molar value.
readout: pIC50

In the examples that follow, each entry is paired with its recorded pIC50.
>>> print(df.to_string())
                               smilesrecord  readout  measurement
0  CN(C(=O)C(C)(C)C)c1cnc2nc(-c3n[nH]c4c3C[C@@H]3C[C@]3(C)C4)[nH]c2c1    pIC50         7.00
1  CN(C(=O)C1(F)CCOCC1)c1cnc2[nH]c(-c3n[nH]c4c3CCC(C)(C)C4)nc2c1    pIC50         6.91

(P) CN(C(=O)C12CC(F)(C1)C2)c1cnc2nc(-c3n[nH]c4c3C[C@@H]3C[C@]3(C)C4)[nH]c2c1
(Q) CN(C(=O)C1CCOCC1)c1cnc2[nH]c(-c3n[nH]c4c3CCC(C)(C)C4)nc2c1
Q: // select label with min value of measured pIC50 from [ P , Q ] Indicate your choice by writing its label.
Result: Q

----------
studySystem: Tropomyosin Receptor Kinase A (TRKA), NTRK1 enzyme (Homo sapiens (Human), UniProt P04629)
measurementNotes: TRKA (NTRK1) ThermoFisher Z'-LYTE enzyme assay
Type: biochemical
testContext: test compound 1 uM, ATP 1 mM; arithmetic mean of count n
readout: inhibition at 1 µM (%)

>>> print(df.to_string())
                                smilesrecord                               studysystem  measurement
 0  COc1nc2[nH]c(-c3n[nH]c4c3C[C@@H]3C[C@]3(C)C4)nc2cc1N(C)C(=O)[C@H](C)N1CCOCC1  Tropomyosin Receptor Kinase A (TRKA), NTRK1 enzyme (Homo sapiens (Human), UniProt P04629)           95
 1  CN(C(=O)C(F)(F)C1CCOCC1)c1cnc2[nH]c(-c3n[nH]c4c3C[C@@H]3C[C@]3(C)C4)nc2c1  Tropomyosin Receptor Kinase A (TRKA), NTRK1 enzyme (Homo sapiens (Human), UniProt P04629)          108
 2  CN(C(=O)CN1CCCOC1=O)c1cnc2nc(-c3n[nH]c4c3C[C@@H]3C[C@]3(C)C4)[nH]c2c1  Tropomyosin Receptor Kinase A (TRKA), NTRK1 enzyme (Homo sapiens (Human), UniProt P04629)          106
 3  CCN(C(=O)[C@H](C)N1CCOCC1)c1cnc2[nH]c(-c3n[nH]c4c3C[C@@H]3C(F)(F)[C@]3(C)C4)nc2c1  Tropomyosin Receptor Kinase A (TRKA), NTRK1 enzyme (Homo sapiens (Human), UniProt P04629)           97
 4  C[C@@H](C(=O)N(C)c1cnc2[nH]c(-c3n[nH]c4c3CCC(C)(C)C4)nc2c1)N1CCOCC1  Tropomyosin Receptor Kinase A (TRKA), NTRK1 enzyme (Homo sapiens (Human), UniProt P04629)           92
 5  CN(C(=O)CCC(C)(F)F)c1cnc2[nH]c(-c3n[nH]c4c3CCC(C)(C)C4)nc2c1  Tropomyosin Receptor Kinase A (TRKA), NTRK1 enzyme (Homo sapiens (Human), UniProt P04629)           92
 6  C[C@@H](C(=O)N(C)c1cnc2[nH]c(-c3n[nH]c4c3C[C@@H]3C[C@]3(C)C4)nc2c1)N1CCOCC1  Tropomyosin Receptor Kinase A (TRKA), NTRK1 enzyme (Homo sapiens (Human), UniProt P04629)           91
 7  CN(C(=O)CC1CCCCC1)c1cnc2nc(-c3n[nH]c4c3C[C@@H]3C[C@]3(C)C4)[nH]c2c1  Tropomyosin Receptor Kinase A (TRKA), NTRK1 enzyme (Homo sapiens (Human), UniProt P04629)           95
 8  C[C@H](C(=O)N(C)c1cnc2[nH]c(-c3n[nH]c4c3C[C@@H]3C[C@]3(C)C4)nc2c1)C1CCOCC1  Tropomyosin Receptor Kinase A (TRKA), NTRK1 enzyme (Homo sapiens (Human), UniProt P04629)           98
 9  COCCOc1nc2[nH]c(-c3n[nH]c4c3C[C@@H]3C[C@]3(C)C4)nc2cc1N(C)C(=O)[C@H](C)N1CCOCC1  Tropomyosin Receptor Kinase A (TRKA), NTRK1 enzyme (Homo sapiens (Human), UniProt P04629)           97
10  CCN(C(=O)[C@@H](C)N1CCOCC1)c1cnc2[nH]c(-c3n[nH]c4c3CCC(C)(C)C4)nc2c1  Tropomyosin Receptor Kinase A (TRKA), NTRK1 enzyme (Homo sapiens (Human), UniProt P04629)           94
11  CCN(C(=O)[C@H](C)C1CCOCC1)c1cnc2[nH]c(-c3n[nH]c4c3CCC(C)(C)C4)nc2c1  Tropomyosin Receptor Kinase A (TRKA), NTRK1 enzyme (Homo sapiens (Human), UniProt P04629)           97
12  C[C@@H](C(=O)N(C)c1cnc2[nH]c(-c3n[nH]c4c3C[C@@H]3C[C@]3(C)C4)nc2c1)C1CCOCC1  Tropomyosin Receptor Kinase A (TRKA), NTRK1 enzyme (Homo sapiens (Human), UniProt P04629)           96
13  C[C@@H](C(=O)N(C)c1cnc2[nH]c(-c3n[nH]c4c3CCC(C)(C)C4)nc2c1)C1CCOCC1  Tropomyosin Receptor Kinase A (TRKA), NTRK1 enzyme (Homo sapiens (Human), UniProt P04629)           94
